Data provenance is PubChem BioAssay (NCI).

- Tested on: NCI-H226 lung
- PROTOCOL_NOTES: NCI tumour cell line growth inhibition, 48 h
MEASURE_NAME: TGI

[[record]]
molecule = "COc1cc2c(/C=C3/C(=O)Nc4ccccc43)c(Cl)[nH]c2cc1C"
system = "NCI-H226 lung"
measured_value = "> 100 µM"

[[record]]
molecule = "CCOC(=O)[C]1([Bi]([CH3])[CH3])N=NC(C(=O)OC)=C1C(=O)OC (stereo unspecified)"
system = "NCI-H226 lung"
measured_value = "41.4 µM"

[[record]]
molecule = "OCc1c[nH]c2ccccc12"
system = "NCI-H226 lung"
measured_value = "48.1 µM"

[[record]]
molecule = "C=c1c(OC)c(OC)c(O)c2c1=c1cc([N+](=O)[O-])cc(OC)c1=N2"
system = "NCI-H226 lung"
measured_value = "> 100 µM"

[[record]]
molecule = "COc1cc([N+](=O)[O-])cc2c3c(n(C)c12)[C@@]1(C)CCC2c4ccc(OCc5ccccc5)cc4CCC2C1C3 (stereo partly specified)"
system = "NCI-H226 lung"
measured_value = "> 100 µM"

[[record]]
molecule = "Cc1cn([C@@H]2C[C@H]2CO)c(=O)[nH]c1=O"
system = "NCI-H226 lung"
measured_value = "> 100 µM"

[[record]]
molecule = "Cc1ccc(NC(=O)c2cccc(N(C)C)c2)cc1NC(=O)c1ccc(O)cc1"
system = "NCI-H226 lung"
measured_value = "> 100 µM"

[[record]]
molecule = "CC1(C)OCC2OC3([C@H]4OC(C)(C)O[C@@H]4CO)OC(C)(C)OC3C2O1 (stereo partly specified)"
system = "NCI-H226 lung"
measured_value = "> 100 µM"

[[record]]
molecule = "CCN1CCC(O)(C(C(=O)O)c2ccccc2)CC1 (stereo unspecified)"
system = "NCI-H226 lung"
measured_value = "> 100 µM"

[[record]]
molecule = "CC(=O)OC/C=C(/C=C/CNC1CCCCC1)OC(C)=O"
system = "NCI-H226 lung"
measured_value = "98.5 µM"

[[record]]
molecule = "O=C1CCC(=O)N2CCCCN12"
system = "NCI-H226 lung"
measured_value = "> 100 µM"


###

- System: NCI-H226 lung
- PROTOCOL_NOTES: NCI tumour cell line growth inhibition, 48 h; in the data active = GI50 below about 0.43 µM; inactive = the rest
Classes used: active, inactive

[[record]]
compound = "Oc1ccc(CN2CCC(N3CCCCC3)CC2)c2cccnc12"
answer_label = "inactive"

[[record]]
compound = "COc1cc([N+](=O)[O-])cc2c3c(n(C)c12)[C@@]1(C)CCC2c4ccc(OCc5ccccc5)cc4CCC2C1C3 (some centres not stated)"
answer_label = "inactive"

[[record]]
compound = "Oc1ccc(NCc2nc3ccccc3[nH]2)cc1"
answer_label = "inactive"

[[record]]
compound = "CCN(CC)c1ccc(/C=C/c2ccc3cc(C)ccc3[n+]2CC)cc1"
answer_label = "active"

[[record]]
compound = "O=C1CCCCN1CCCCC#Cc1ccccc1C#Cc1ccc([N+](=O)[O-])cc1"
answer_label = "inactive"

[[record]]
compound = "C=CC(=O)N1CC2(CCN(c3nc(OC4CCN(CCCOC)CC4)nc4c(OCC(F)(F)F)c(-c5c(C)ccc6[nH]ncc56)c(C5CC5)cc34)CC2)C1"
answer_label = "inactive"

[[record]]
compound = "O=c1/c(=C/c2ccco2)sc2nc3ccccc3n12"
answer_label = "inactive"


###

- Tested on: A498 renal
- PROTOCOL_NOTES: NCI tumour cell line growth inhibition, 48 h
GI50: recorded values
MEASURE_NAME: GI50

[[record]]
compound = "CN1CCN(C(=O)OCc2nc3c(N4CCOCC4)nc(Cl)nc3n2C)CC1"
system = "A498 renal"
measured_value = "1.15 µM"

[[record]]
compound = "O=C1c2cc(Cl)ccc2S(=O)(=O)c2c(NCCCNCCO)nc3ccccc3c21"
system = "A498 renal"
measured_value = "2.95 µM"

[[record]]
compound = "CCC[CH2][Sn]([CH2]CCC)([O]C(=O)c1cccnc1SC)[O]C(=O)c1cccnc1SC"
system = "A498 renal"
measured_value = "0.676 µM"

[[record]]
compound = "CCOC(=O)[C]1([Bi]([CH3])[CH3])N=NC(C(=O)OC)=C1C(=O)OC (configuration not stated)"
system = "A498 renal"
measured_value = "25.7 µM"

[[record]]
compound = "Cn1c2ccccc2c2c(-c3ccccc3)[n+]3ccncc3nc21"
system = "A498 renal"
measured_value = "> 100 µM"

[[record]]
compound = "N#Cc1ccc(NC(=O)Nc2ccc(Oc3ccc(NC(=O)Nc4ccc(C#N)cc4)cc3)cc2)cc1"
system = "A498 renal"
measured_value = "15.9 µM"

[[record]]
compound = "FC(F)(F)c1cccc(Nc2nccc(-c3cnn4nc(-c5ccccc5)ccc34)n2)c1"
system = "A498 renal"
measured_value = "> 14 µM"


###

- Test system: SK-MEL-2 melanoma
- PROTOCOL_NOTES: NCI tumour cell line growth inhibition, 48 h
MEASURE_NAME: TGI

[[record]]
molecule = "O=C1NC2OC(CO)C(O)C(O1)C2O (stereo not given)"
measured_value = "> 100 µM"

[[record]]
molecule = "N#Cc1c(-c2ccc(F)cc2)nc(N/N=C/c2c[nH]c3ccccc23)nc1N1CCOCC1"
measured_value = "17.7 µM"

[[record]]
molecule = "CCC[CH2][Sn]([CH2]CCC)([O]C(=O)c1cccnc1SC)[O]C(=O)c1cccnc1SC"
measured_value = "1.39 µM"

[[record]]
molecule = "CC(=O)CNC(=O)OC(C)(C)C"
measured_value = "> 100 µM"

[[record]]
molecule = "O=C(Cc1ccc([N+](=O)[O-])cc1)OCC#CCOC(=O)Cc1ccc([N+](=O)[O-])cc1"
measured_value = "> 10 µM"

[[record]]
molecule = "O=c1oc2cc(O)ccc2c(O)c1C(c1ccc(C(c2c(O)c3ccc(O)cc3oc2=O)c2c(O)c3ccc(O)cc3oc2=O)cc1)c1c(O)c2ccc(O)cc2oc1=O"
measured_value = "> 100 µM"

[[record]]
molecule = "O=C1Nc2c(C(F)(F)F)cccc2[C@]1(c1ccc(O)cc1)c1ccc(OC(F)(F)F)cc1"
measured_value = "28.2 µM"

[[record]]
molecule = "Brc1ccc2c(-c3csc(-c4c[nH]c5cc(Br)ccc45)n3)c[nH]c2c1"
measured_value = "> 100 µM"

[[record]]
molecule = "CNC(=O)N(CCC#N)[C@H]1CCCC[C@@H]1N(C(=O)NC)c1ccccc1"
measured_value = "> 100 µM"

[[record]]
molecule = "CN1CCN(C(=O)OCc2nc3c(N4CCOCC4)nc(Cl)nc3n2C)CC1"
measured_value = "3.45 µM"

[[record]]
molecule = "Nc1cc(N)c2nc(-c3ccccc3)c(Nc3ccc(Cl)c(Cl)c3)nc2c1"
measured_value = "19.1 µM"

[[record]]
molecule = "COc1cc(/C=C\\C(=O)O)ccc1OCc1ccccc1"
measured_value = "> 100 µM"

[[record]]
molecule = "CCOC(=O)C1=C(OC(OCC)C(CC)[Se]c2ccccc2)CCCC1 (stereo not given)"
measured_value = "43 µM"

[[record]]
molecule = "CC1S/C(=N/c2nnc(-c3ccccc3)o2)NC1=O (stereo not given)"
measured_value = "> 100 µM"

[[record]]
molecule = "O=C(Nc1ccccc1C(=O)NCCCO)/C(=C/c1ccccc1O)NC(=O)c1ccccc1"
measured_value = "> 100 µM"

[[record]]
molecule = "O=C(N/N=C/c1ccco1)c1cc(I)cc(I)c1O"
measured_value = "19.7 µM"

[[record]]
molecule = "C=C1C(=O)O[C@H]2[C@H]1CC/C(Cn1cc(-c3ccc(OC)cc3)nn1)=C\\CC[C@@]1(C)O[C@@H]21"
measured_value = "4.61 µM"

[[record]]
molecule = "CN1C(=O)C2(Cc3cn(C45CC67SSC(CO)(C(=O)N6C4Nc4ccccc45)N(C)C7=O)c4ccccc34)SSC1(CO)C(=O)N2C (stereo not given)"
measured_value = "0.288 µM"

[[record]]
molecule = "CC1(C)C=C(S(=O)(=O)c2ccccc2)Oc2ccccc2O1"
measured_value = "> 100 µM"

[[record]]
molecule = "C=c1c(OC)c(OC)c(O)c2c1=c1cc([N+](=O)[O-])cc(OC)c1=N2"
measured_value = "> 100 µM"


###

- System: NCI-H23 lung
- PROTOCOL_NOTES: NCI tumour cell line growth inhibition, 48 h
MEASURE_NAME: TGI

[[record]]
compound = "O=C1CCC2(c3ccc(F)cc3)Nc3cc(Cl)ccc3N12 (stereo unspecified)"
measure_name = "TGI"
measured_value = "> 100 µM"

[[record]]
compound = "N#Cc1ccc(O)c(C2=NCC(c3cccc(Oc4ccccc4)c3)O2)c1 (stereo unspecified)"
measure_name = "TGI"
measured_value = "> 100 µM"

[[record]]
compound = "C[C@]12CC[C@H]3[C@@H](CC=C4C[C@@H](O)CC[C@@]43C)[C@@H]1CC[C@@H]2N(CCO)CCO"
measure_name = "TGI"
measured_value = "> 100 µM"

[[record]]
compound = "CC(=S)N=Cc1c(O)cc(C)oc1=O"
measure_name = "TGI"
measured_value = "> 100 µM"

[[record]]
compound = "CN1CCN(C(=O)OCc2nc3c(N4CCOCC4)nc(Cl)nc3n2C)CC1"
measure_name = "TGI"
measured_value = "3.3 µM"

[[record]]
compound = "C=CCOCCCCC(C(C)=O)C(=O)OC (stereo unspecified)"
measure_name = "TGI"
measured_value = "> 100 µM"

[[record]]
compound = "O=C1/C(=C/c2ccccc2)CNC/C1=C\\c1ccccc1"
measure_name = "TGI"
measured_value = "4.27 µM"

[[record]]
compound = "Nc1cc(N)c2nc(-c3ccccc3)c(Nc3ccc(Cl)c(Cl)c3)nc2c1"
measure_name = "TGI"
measured_value = "55.2 µM"

[[record]]
compound = "COc1ccc2c(c1)CN1C(=N2)CSC1c1ccccc1Cl (stereo unspecified)"
measure_name = "TGI"
measured_value = "3.45 µM"

[[record]]
compound = "CS(=O)(=O)c1ccc([C@H]2O[C@@H](CO)C[C@]2(O)c2ccc(S(C)(=O)=O)cc2)cc1"
measure_name = "TGI"
measured_value = "> 100 µM"

[[record]]
compound = "Brc1cccc(C=NC23CC4CC(CC(C4)C2)C3)c1"
measure_name = "TGI"
measured_value = "> 100 µM"

